Recorded Kp for the following compounds
assay: Distribution of sGC stimulators in tissues, rats (liver and plasma by LC-MS/MS); type: in vivo; settings: Wistar, rat, 10 mg/kg PO Q.D. 5 days, 2 h post fifth dose, male rats, read-out: total Liver:Plasma ratio

{"columns": ["SMILES ENTRY", "Kp"],
 "data": [
  ["OC(CNc1nc(-c2cc(-c3ccon3)n(Cc3ccccc3F)n2)ncc1F)(C(F)(F)F)C(F)(F)F", 20],
  ["NC(=O)[C@](O)(CNc1nc(-c2cc(-c3ccon3)n(Cc3ccccc3F)n2)ncc1F)C(F)(F)F", 8]
]}

----------
Recorded Kp for the following molecules
assay: Distribution of sGC stimulators in tissues, rats (liver and plasma by LC-MS/MS); format: in vivo; conditions: Wistar, rat, 1 mg/kg PO Q.D. 5 days, 2 h post fifth dose, male rats, read-out: total Liver:Plasma ratio
PROPERTY NAME: Kp

{"columns": ["SMILES ENTRY", "PROPERTY NAME", "ASSAY RESULT"],
 "data": [
  ["NC(=O)[C@](O)(CNc1nc(-c2cc(-c3ccon3)n(Cc3ccccc3F)n2)ncc1F)C(F)(F)F", "Kp", 6],
  ["OC(CNc1nc(-c2cc(-c3ccon3)n(Cc3ccccc3F)n2)ncc1F)(C(F)(F)F)C(F)(F)F", "Kp", 19]
]}
